- assayProcedure: yeast display, Sf9 membrane polyspecificity reagent, FACS + sequencing; frameworks hold sequencing errors

{"sequenceRecord": "QVQRVESGGGLVQAGGSLRLSCAASASTIVIKAMGCYRQAPGKARELVADLDYRGGSTNYADSVKGRFTISRDNAKNTVYLQMNSLKPEDTAVYYFNKRYVIRRRGYDYWGQGTQVTVSS", "polyreactivity (PSR sort gate)": "low polyreactivity"}
{"sequenceRecord": "QVQLVESGGGLVQAGGRLRISCAASGSTFKANAMGWYRQSPGKERELVASIRFSAGSTYYADSVKGRFTISRDTAKNTVYLEMNRLKPEDTAVYYCAAGRHVLKRRYDYWGQGTQVTVSS", "polyreactivity (PSR sort gate)": "low polyreactivity"}
{"sequenceRecord": "QVQLVESGGGLVQARGSLRLSCAASGSTFSYNDMGWYRQAPGKERDLVADINVSVGRTYYADSVKGRFTISRDNAKNTVFLQMNSLKPEDTAVYYCNATLYTITSYVYAYDYWGQGTQVTVSS", "polyreactivity (PSR sort gate)": "low polyreactivity"}
{"sequenceRecord": "QVQLVESGGGLVQAGGSLRLSCAASGRTFVRYAMGWYRQAPGKERELVAAISWSGATTYYADSVKGRFTISRDNAKNTVYLQMNSLKPEDTAVYYCAARFRRGITYEYWGQGTQVTVSS", "polyreactivity (PSR sort gate)": "high polyreactivity"}
{"sequenceRecord": "QVQLVESGGGLVQAGGSLRLSCAASGGTIENYAMGWYRQAPGKERELVAAISSGGSTNYADSVKGRFTISRDNAKNTVYLQMNSLKPEDTAVYYCATRGIWKKVPYYYWGQGTQVTVSS", "polyreactivity (PSR sort gate)": "low polyreactivity"}
{"sequenceRecord": "QVQLVESGGGLVQAGGSLRLSCAASGRILGYYAMGWYRQAPGKERELVAAITYSGGSTYYADSVKGRFTISRDNAKNTVYLQMNSLKPEDTAVYYCAADKWLLGLYGSTWNDYWGQGTQVTVSS", "polyreactivity (PSR sort gate)": "low polyreactivity"}
{"sequenceRecord": "QGQLVESGGGLVQAGGSLRLSCAASGSTFTIYVMGWYRQAPGKERELVAGISWSGGSTYYTDSVKGRFTISRDNAKNTVYLQMNSLKPEDTAVYYCNADAQWSVWSYIIDYDYWGQGTQVTVPS", "polyreactivity (PSR sort gate)": "low polyreactivity"}
{"sequenceRecord": "QVQLVESGGGLVQAGGSLRLSCAASGYTFTRYAMGWYRQAPGKEREFVAAITSGGGSTYYADSVKGRFTISRDNAKNTVYLQMNSLKPEDTAVYYCAADLTSLWYTVQLELDFWGQGTQVTVSS", "polyreactivity (PSR sort gate)": "low polyreactivity"}
{"sequenceRecord": "QVQLVESGGGLVQAGGSLRLSCAASGSIIRGYAIGWFRPAPGKERELVAAITSSGGSTYYADSVKGRFTISRDNAKNTVYLQMNSLKPEETAVYYCTKYRYSYKYNYWGQGTQVTVSS", "polyreactivity (PSR sort gate)": "high polyreactivity"}
{"sequenceRecord": "QVQLVESGGGLVQAGGSLRLSCAASGIIFRYYAMGWYRQAPGKERELVATISWRGGSTYYADSVKGRFTISRDNAKNTVYLQMNSLKPEDTAVYYCAAAISYSARGGKGLGGYWGQGTQVTVSS", "polyreactivity (PSR sort gate)": "high polyreactivity"}
{"sequenceRecord": "QGQLVQSGVGLVQAGGILRLSCASSGITFASYAMGWYRPAPGKEMELVATITTGGTNTYYADSVKARFTISRDNAKNTVYLQMNSLKPEDTAVYSSAADSTQYVLSGNYDYWGQGTQVTVSS", "polyreactivity (PSR sort gate)": "low polyreactivity"}
